Catalogue of IC50 readings, one per entry.
Target: mushroom tyrosinase
Assay: Inhibition of tyrosinase, kinetic analysis
Details: 20 C, phosphate buffer 100 mM, pH 6.8; read-out: Tyrosinase Inhibitory Concentration
result.type: IC50 (mM)

{"molecule": "C[C@@H](NCC(=O)O)c1ccc(O)cc1O", "number": 5}
{"molecule": "OC[C@H]1O[C@@H](Oc2ccc(O)cc2)[C@H](O)[C@@H](O)[C@@H]1O [Arbutin, reference compound]", "number": 25}
{"molecule": "C[C@H](NCC(=O)O)c1ccc(O)cc1O", "number": 10}
